Test system: HEK293T (human)
Experiment: Cytotoxicity against human HEK293T cells at dual luciferase reporter gene assay EC50 after 24 hrs by MTS assay
attribute.measured: Activity (%)
Record the value in %, omitting the unit from your answer.

The examples below pair each entry with its known result.
{"line.notation": "COc1ccc(/C=C2\\CCC/C(=C\\c3ccc(OC)c(OC)c3)C2=O)cc1OC", "attribute.measured": "Activity", "experimental.value": 62.1}
{"line.notation": "O=C1/C(=C/c2ccc(O)cc2)CC/C1=C\\c1ccc(O)cc1", "attribute.measured": "Activity", "experimental.value": 81.4}
{"line.notation": "COc1ccc(/C=C/C(=O)/C=C/c2ccc(OC)c(O)c2)cc1O", "attribute.measured": "Activity", "experimental.value": 86.6}
{"line.notation": "COc1ccc(/C=C/C(=O)/C=C(O)/C=C/c2ccc(OC)c(OC)c2)cc1OC", "attribute.measured": "Activity", "experimental.value": 41.6}

The value of Activity measured for the molecule O=C1/C(=C/c2ccccc2)CC/C1=C\c1ccccc1 turned out to be 83.5

---

Assay: Inhibition of Wnt3A/beta-catenin signaling in HEK293 cells after 24 hrs by firefly/renilla dual luciferase reporter gene assay
Type: cell-based
Conditions: Homo sapiens, HEK293, 24 h
The entries below come with measured log10 EC50 values attached.
Friendly reminder: values = log10 of EC50, unit µM.

{"line.notation": "COc1ccc(/C=C/C(=O)/C=C(O)/C=C/c2ccc(OC)c(OC)c2)cc1OC", "attribute.measured": "log10 EC50", "experimental.value": 0.92}

The value of log10 EC50 measured for the compound O=C1/C(=C/c2ccc(O)cc2)CCC/C1=C\c1ccc(O)cc1 turned out to be -0.10

The value of log10 EC50 measured for the compound COc1ccc(/C=C2\CC/C(=C\c3ccc(OC)c(OC)c3)C2=O)cc1OC turned out to be 1.23

The value of log10 EC50 measured for the compound COc1ccc(/C=C2\CCC/C(=C\c3ccc(OC)c(O)c3)C2=O)cc1O turned out to be -0.52

The value of log10 EC50 measured for the compound O=C1/C(=C/c2ccc(O)cc2)CC/C1=C\c1ccc(O)cc1 turned out to be -0.40

The value of log10 EC50 measured for the compound COc1cc(/C=C2\CC/C(=C\c3ccc(O)c(OC)c3)C2=O)ccc1O turned out to be 0.77

The value of log10 EC50 measured for the compound COc1ccc(/C=C2\CCC/C(=C\c3ccc(OC)c(OC)c3)C2=O)cc1OC turned out to be 1.20

The value of log10 EC50 measured for the compound COc1ccc(/C=C/C(=O)/C=C/c2ccc(OC)c(O)c2)cc1O turned out to be 0.26

The value of log10 EC50 measured for the compound O=C1/C(=C/c2ccccc2)CC/C1=C\c1ccccc1 turned out to be 0.49

---

Test system: HEK293T (human)
Experiment: Cytotoxicity against human HEK293T cells at dual luciferase reporter gene assay EC50 after 24 hrs by MTS assay
attribute.measured: Activity (%)
Record the value in %, omitting the unit from your answer.

The examples below pair each entry with its known result.
{"line.notation": "COc1ccc(/C=C2\\CCC/C(=C\\c3ccc(OC)c(O)c3)C2=O)cc1O", "attribute.measured": "Activity", "units.label": "%", "experimental.value": 91.6}
{"line.notation": "O=C1/C(=C/c2ccccc2)CCC/C1=C\\c1ccccc1", "attribute.measured": "Activity", "units.label": "%", "experimental.value": 100}

The value of Activity measured for the molecule COc1ccc(/C=C/C(=O)c2ccc(OC)c(O)c2)cc1O turned out to be 87.2

The value of Activity measured for the molecule O=C1/C(=C/c2ccccc2F)CCC/C1=C\c1ccccc1F turned out to be 87

The value of Activity measured for the molecule COc1ccc(/C=C2\CC/C(=C\c3ccc(OC)c(O)c3)C2=O)cc1O turned out to be 86.9
